Entry source: patent US3946018A

experiment: rotarod test (paralyzing / neurotoxic effect); conditions: mouse, in vivo, po
quantity.kind: TD50 (mg/kg)
Give the value in mg/kg but do not write mg/kg after it.

Per the record, CCC1(c2ccccc2)C(=O)NC(=O)NC1=O [5-ethyl-5-phenyl-barbituric acid, 5-ethyl-5-phenylbarbituric acid, reference compound] has TD50 of 38

====

Assay: in vivo
Settings: mouse, po
Protocol: The pharmacological properties of the new compounds were tested on white mice of both sexes, weighing 16 to 24 g. The new compounds were administered orally through a metal stomach tube, in the form of a 5 per cent suspension in a medium containing Tween 80 as suspending agent. The paralyzing effect of the compounds was tested on groups each consisting of 8 mice, by the rotarod test. […] The neurotoxic activity was evaluated according to the method of Lichtfield and Wilcoxon. […]
Property: TD50; scope: individual molecules
Give the value in mg/kg but do not write mg/kg after it.

Example molecules with recorded TD50:
molecule="CCCNCC(=O)Nc1ccc(C2NC(=O)C(C)c3ccccc32)cc1 (centres unmarked) [Example 7]" experimental_value=340
molecule="CCNCC(=O)Nc1ccc(C2NC(=O)C(C)(C)c3ccccc32)cc1 (centres unmarked) [Example 10]" experimental_value=760
molecule="CCCNCC(=O)Nc1ccc(C2NC(=O)Cc3ccccc32)cc1 (centres unmarked) [Example 5]" experimental_value=490
molecule="O=C1NC(=O)C(c2ccccc2)(c2ccccc2)N1 [5,5-diphenyl-hidantoine, 5,5-diphenylhydantoine, reference compound]" experimental_value=10

Shift focus to the following entry.
Per the record, CN1C(=O)OC(C)(C)C1=O [3,5,5-trimethyl-2,4-oxazolidine-dione, reference compound] has TD50 of 340

====

Property: LD50; scope: individual compounds
test system: white mice; experiment: acute oral toxicity (LD50) in mice; details: mouse, in vivo, po

Example compounds with recorded LD50:
compound="CC(C)NCC(=O)Nc1ccc(C2NC(=O)Cc3ccccc32)cc1 (stereo not drawn) [Example 12]" experimental_value="> 1000 mg/kg"
compound="CC(C)NCC(=O)Nc1ccc(C2NC(=O)C(C)(C)c3ccccc32)cc1 (stereo not drawn) [Example 14]" experimental_value="> 2000 mg/kg"
compound="CCCNCC(=O)Nc1ccc(C2NC(=O)C(C)c3ccccc32)cc1 (stereo not drawn) [Example 7]" experimental_value="> 1600 mg/kg"

Entry CCNCC(=O)Nc1ccc(C2NC(=O)Cc3ccccc32)cc1 (stereo not drawn) [Example 9] , white mice data, LD50 value: > 1600 mg/kg

Entry CCNCC(=O)Nc1ccc(C2NC(=O)C(C)(C)c3ccccc32)cc1 (stereo not drawn) [Example 10] , white mice data, LD50 value: > 2000 mg/kg

Entry CNCC(=O)Nc1ccc(C2NC(=O)C(C)(C)c3ccccc32)cc1 (stereo not drawn) [Example 13] , white mice data, LD50 value: > 2000 mg/kg

====

assay: acute oral toxicity (LD50) in mice; conditions: mouse, in vivo; oral, mice; read-out: LD50
Property: LD50; scope: individual compounds
Give the value in mg/kg but do not write mg/kg after it.

compound="CN1C(=O)OC(C)(C)C1=O [3,5,5-trimethyl-2,4-oxazolidine-dione, reference compound]" value_unit=mg/kg experimental_value=1750

Per the record, O=C1NC(=O)C(c2ccccc2)(c2ccccc2)N1 [5,5-diphenyl-hidantoine, 5,5-diphenylhydantoine, reference compound] has LD50 of 300

Per the record, CCC1(c2ccccc2)C(=O)NC(=O)NC1=O [5-ethyl-5-phenyl-barbituric acid, 5-ethyl-5-phenylbarbituric acid, reference compound] has LD50 of 180
